- PROCEDURE_DETAILS: SU-DIPG-XXV glioma cell viability, MIPE5.0 library, qHTS (AID 1347068);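 on IC50: cells exposed to compound for 48 hours before viability readout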
Results filed as inconclusive are left out. Activity calls are given as the source filed them. Cut-off not given; nearly all actives show IC50 up to about 30 µM.
Select the correct class. Options are active, inactive and nothing else.

A selection of reference data follows.
Cc1[nH]c(/C=C2\C(=O)Nc3ccc(S(=O)(=O)Cc4c(Cl)cccc4Cl)cc32)c(C)c1C(=O)N1CCC[C@@H]1CN1CCCC1 ... inactive
Cc1cc2c(s1)Nc1ccccc1N=C2N1CCN(C)CC1 ... inactive
Cc1ccccc1C(=O)c1ccc(Nc2ccc(Br)cc2N)cc1Cl ... active
Oc1ccc(-c2nc(-c3ccc(F)cc3)c(-c3ccncc3)[nH]2)cc1 ... inactive
CC[C@H]1OC(=O)[C@H](C)[C@@H](O[C@H]2C[C@@](C)(OC)[C@@H](O)[C@H](C)O2)[C@H](C)[C@@H](O[C@@H]2O[C@H](C)C[C@H](N(C)C)[C@H]2O)[C@](C)(O)C[C@@H](C)CN(C)[C@H](C)[C@@H](O)[C@]1(C)O ... inactive
O=C1C(Cl)=C(NCCN2CCOCC2)C(=O)c2ncccc21 ... active
CN(CCOc1ccc(-c2ccc3c(c2)OCO3)cc1C(C)(C)C)CC(=O)O ... inactive
NC(=O)Nc1sc(-c2ccc(F)cc2)cc1C(N)=O ... active
CC(NCCc1ccc(O)cc1)C(O)c1ccc(O)cc1 (configuration not stated) ... inactive
O=C(O)C[C@H](O)C[C@H](O)/C=C/c1c(C2CC2)nc2ccccc2c1-c1ccc(F)cc1 ... inactive

Task: Name the outcome recorded for COc1cc([C@@H]2c3cc4c(cc3[C@@H](O[C@@H]3O[C@@H]5CO[C@@H](C)O[C@H]5[C@H](O)[C@H]3O)[C@H]3COC(=O)[C@H]23)OCO4)cc(OC)c1O in the assay.
Result: inactive

Task: Any idea what this test logged for CN[C@@H]1[C@H](O[C@H]2[C@H](O[C@@H]3[C@@H](O)[C@H](O)[C@@H](N=C(N)N)[C@H](O)[C@H]3N=C(N)N)O[C@@H](C)[C@]2(O)C=O)O[C@@H](CO)[C@H](O)[C@H]1O ?
Result: inactive

----------
- PROCEDURE_DETAILS: enhancers of glutamate uptake in motor neurons, MN-1 cell line (AID 1612);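 further: tested at 1 µM final; 0% = mean of DMSO vehicle wells on each plate; positive means more glutamate uptake than control and negative means less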
- CONDITIONS_USED: MN-1 motor neuron cells, stronger effect = higher value
Recorded glutamate uptake change by entry
Answer with a number only, understood to be in %.

Cc1c(C)c2c(c(C)c1O)CCC(C)(CCCC(C)CCCC(C)CCCC(C)C)O2 (stereo not drawn) ... -4.89
CCC(=O)OCC(=O)C1(OC(=O)CC)C(C)CC2C3CCC4=CC(=O)C=CC4(C)C3(Cl)C(O)CC21C (stereo not drawn) ... 23.7

Task: # glutamate uptake change lookup, item CN1CCN(C(c2ccccc2)c2ccc(Cl)cc2)CC1 (stereo not drawn)
Result: 11.5

Task: Would you mind telling me what glutamate uptake change value was observed for CCCCCCCCCCCCC[N+](C)(C)Cc1ccccc1 ?
Result: 18.1

Task: Looking for the measured glutamate uptake change of CC(COc1ccccc1)NC(C)[C@H](O)c1ccc(O)cc1 (stereo partly drawn) , can you help?
Result: 5.98

Task: For the compound CC1(C)O[C@@H]2CC3C4CCC5=CC(=O)C=C[C@]5(C)[C@@]4(F)[C@@H](O)C[C@]3(C)[C@]2(C(=O)CO)O1 (stereo partly drawn) , what glutamate uptake change is on record?
Result: 20.7

Task: Request the reported glutamate uptake change associated with CC(Cc1ccc(O)c(O)c1)(NN)C(=O)O (stereo not drawn)
Result: 6.68

Task: Data request, read-out glutamate uptake change, for CC1OC1P(=O)(O)O (stereo not drawn)
Result: -1.38

----------
- PROCEDURE_DETAILS: HepG2 cytotoxicity, primary screen, cytotoxicity control for P. falciparum antimalarial project, cell-based, ATP luminescence (AID 2303);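 further: 0% = DMSO wells and 100% = digitonin-killed cells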
- CONDITIONS_USED: HepG2 viability, 24-48 h, at 10 µM
Active and inactive are the calls of the source.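 Rule for the calls: active = inhibition above 50%; inactive = the rest.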
Lab note: assign the record to one of Yes (active), No (inactive)

Take a look at these entries with their results.
CC(C)CC(C)NC(=O)C1Cc2c([nH]c3cc(Cl)ccc23)C2(CCN(CCc3ccccc3)CC2)N1 (stereo not given) ... No
COc1ccc(NC(=O)c2ccc(-c3cccc(OCc4ccccc4)c3)cc2)cc1N1CCN(C)CC1 ... No
O=C(Nc1cccc(-c2nn3ccccc3c2-c2ccnc(Nc3ccc(NCCCN4CCOCC4)c(F)c3)n2)c1)c1c(F)cccc1F ... Yes

Task: Record lookup: outcome of this test for CC(C)CN1C(=O)C(c2ccc(F)c(F)c2)=C(O)C1c1ccccc1 (stereo not given) ?
Result: No

Task: // return assay outcome for COc1ccc(C(=O)Nc2ccc3oc(-c4ccc(C(F)(F)F)cc4)cc3c2)cc1CCCN(C)C
Result: Yes

Task: Please share the test call associated with CN(c1ccc(NC(=O)Nc2cc(C(F)(F)F)ccc2F)cc1)c1ccnc(NCCN2CCOCC2)n1 .
Result: Yes

Task: Give the logged outcome of this assay for the following compound: CCC(C)CN1C(=O)C(c2ccccc2)(c2ccccc2)N=C1N (stereo not given)
Result: No

Task: Field: outcome | Entry: Nc1cc(C(F)(F)F)ccc1Cl
Result: No

Task: Field: outcome | Entry: Cc1nc(C)c(CC(=O)Nc2ccc(-c3cccc(-c4nc5c(C)cccc5[nH]4)c3)cc2)s1
Result: No

Task: Look up the recorded call for CC(=O)N1N=C(c2[nH]c3ccc(Br)cc3c2C)OC1c1ccccc1 (stereo not given) in this test.
Result: No

Task: Tell me the recorded outcome of this test for Cc1cc(Nc2ncc(C#N)c(Nc3ccccc3C(N)=O)n2)ccc1N1CCN(C)CC1 .
Result: Yes

Task: Would you mind telling me which call this test gave CC1(C)N=C(N)N=C(N)N1OCOc1cc(Cl)c(Cl)cc1Cl ?
Result: Yes

Task: Hello, I am checking results. What call was entered for Cc1ccc(Nc2cc(C)nn2-c2nc(C)cc(=O)[nH]2)cc1 ?
Result: Yes

Task: What classification did O=C(Nc1ccc(-c2nc3cc4ccccc4cc3[nH]2)cc1)c1cccc(Br)c1 end up with in this test?
Result: Yes

Task: Which outcome did this test record for the compound COc1cc(/C=C/C(=O)NCC(CCNc2cc(=O)c3ccccc3[nH]2)NCc2cc(Br)cc(Br)c2)cc(OC)c1 (stereo not given) ?
Result: No

----------
Readings of fluorescence ratio for the listed compounds
- PROCEDURE_DETAILS: fluorescence interference in NS3h assay format, artefact control for HCV NS3 helicase inhibitor project, biochemical, NIH Clinical Collection (AID 743272);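 further: HCV NS3 helicase with a Cy5 labelled single stranded DNA probe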
- CONDITIONS_USED: fluorescence interference counterscreen, stronger effect = lower value
Form: value (number only, do not type unit).

CC(C)OC(=O)CCC/C=C\C[C@@H]1[C@@H](CC[C@@H](O)CCc2ccccc2)[C@H](O)C[C@@H]1O ... 0.95
Nc1nc2ccc(Cl)cc2c2nc(-c3ccco3)nn12 ... 0.95
Nc1ccc2cn[nH]c2c1 ... 0.98

# next compound below
Task: // lookup fluorescence ratio for CCC(=C(c1ccccc1)c1ccc(OCCN(C)C)cc1)c1ccccc1
Result: 0.9

----------
- PROCEDURE_DETAILS: antimalarial activity against Dd2 strain (AID 2302);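 further: 0% = DMSO untreated growth and 100% = chloroquine plus artemisinin killed control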
- CONDITIONS_USED: P. falciparum Dd2 in RBCs, LDH growth readout, 72 h; at 2 µM
The source made the active and inactive calls.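 How the source made its calls: active means growth inhibition above 50% at the single 2 µM test dose, taken to imply half-maximal potency below 2 µM; inactive means the rest.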
# output must be one of y (active), n (inactive)

Here are 5 compounds together with their reported answers.
CC(=O)Nc1ccc(Nc2ncc([N+](=O)[O-])c(Nc3ccccc3C(N)=O)n2)cc1 ... y
CCn1cc(C=C2Oc3c(ccc(O)c3CN3CCCCC3C)C2=O)c2ccccc21 (configuration not stated) ... y
Cc1nnc(-c2cccc(Nc3ccnc4cc(-c5nccs5)ccc34)c2)o1 ... y
Cc1cc(=O)[nH]c(-n2nc(C)cc2NC(=O)C2(c3ccc(Cl)cc3)CCCC2)n1 ... y
CS(=O)(=O)CCNC(=O)c1ccc(-c2cc3c(Nc4ccc5c(cnn5Cc5ccccc5)c4)ncnc3cn2)o1 ... n

Task: # outcome recorded in this test, key = CCC(C)c1ccc(-n2c(Nc3ccccc3)nc3cc(S(N)(=O)=O)ccc32)cc1 (configuration not stated)
Result: n

Task: Would you mind telling me which call this test gave CC(C)(C)OC(=O)NCC(=O)N(Cc1ccccc1)Cc1ccccc1 ?
Result: y

----------
The compounds listed here are annotated with their cell count.
- PROCEDURE_DETAILS: modifiers of HSF1 nuclear foci, imaging, Selleck Cancer Library (AID 1347162)
- CONDITIONS_USED: human cells, at 10 µM; measured here: cell number
Provide a numeric answer; units are not to be included.

// solved cases for cell count follow
O=C(c1ccc(OCCN2CCCCC2)cc1)c1c(-c2ccc(O)cc2)sc2cc(O)ccc12 ... 6850
CCOc1cc(C(=O)Nc2ccc(Cl)c(-c3nc4ccccc4[nH]3)c2)cc(OCC)c1OCC ... 6790
CC(=O)O[C@H]1C(=O)[C@@]2(C)C([C@H](OC(=O)c3ccccc3)[C@]3(O)C[C@H](OC(=O)[C@H](O)[C@@H](NC(=O)c4ccccc4)c4ccccc4)C(C)=C1C3(C)C)[C@]1(OC(C)=O)CO[C@@H]1C[C@@H]2O (stereo not given in full) ... 6910
CCN(CC)CCCC(C)Nc1nc(C)cc(Nc2ccc3nc(C)cc(N)c3c2)n1 (stereo not given) ... 7010

Task: Would you mind telling me what cell count value was observed for O=C(O)CCc1ccc(NCc2cccc(Oc3ccccc3)c2)cc1 ?
Result: 6830
